- assay-system: CaM (Bos taurus, UniProt P62157)
- Construct: made in house; host or cells: E. coli BL21 (DE3)
- assay-comment: Pull-down assay with immobilized protein and LSM libraries
- Type: binding, bovine
- conditions: H14 library; 1:2 stoichiometry assumed; read-out: Surface mapping KD (apparent)
metric: pKd
Convention used: pKd is expressed as -log10 of the molar concentration.

// solved cases for pKd follow
>>> readout_value("C[C@@H](O)[C@@H](CC(=O)N[C@H]1CCCC[C@@H]1C(N)=O)NC(=O)[C@H]1CCCC[C@@H]1NC(=O)[C@H]1CCCC[C@@H]1NC(=O)C[C@H](Cc1ccccc1)NC(=O)[C@H]1CCCC[C@@H]1N [H14 FT]")
4.96
>>> readout_value("NC(=O)[C@H]1CCCC[C@@H]1NC(=O)C[C@H](Cc1ccc(O)cc1)NC(=O)[C@H]1CCCC[C@@H]1NC(=O)[C@H]1CCCC[C@@H]1NC(=O)C[C@H](Cc1c[nH]c2ccccc12)NC(=O)[C@H]1CCCC[C@@H]1N [H14 WY]")
5.70

Consider the record given below.
Query: Requested read-out: pKd. Entry: NC(=O)CC[C@@H](CC(=O)N[C@H]1CCCC[C@@H]1C(=O)N[C@H]1CCCC[C@@H]1C(=O)N[C@@H](CC(N)=O)CC(=O)N[C@H]1CCCC[C@@H]1C(N)=O)NC(=O)[C@H]1CCCC[C@@H]1N [H14 QN]
Reply: 3.75

---

- assay-system: CaM (Bos taurus, UniProt P62157)
- Construct: made in house; host or cells: E. coli BL21 (DE3)
- assay-comment: Pull-down assay with immobilized protein and LSM libraries
- Assay type: binding, bovine
- conditions: H12 library; 1:2 stoichiometry assumed; read-out: Surface mapping KD (apparent)
# reported Kd; entries follow
Answer in µM, number only, no unit symbol.

// solved cases for Kd follow
>>> readout_value("NC(=O)[C@H]1CCC[C@@H]1NC(=O)[C@H]1CCC[C@@H]1NC(=O)C[C@H](Cc1c[nH]c2ccccc12)NC(=O)[C@H]1CCC[C@@H]1NC(=O)[C@H]1CCC[C@@H]1NC(=O)C[C@H](Cc1ccccc1)NC(=O)[C@H]1CCC[C@@H]1NC(=O)[C@H]1CCC[C@@H]1N")
134
>>> readout_value("NCCCC[C@@H](CC(=O)N[C@H]1CCC[C@@H]1C(=O)N[C@H]1CCC[C@@H]1C(=O)N[C@H](CC(=O)N[C@H]1CCC[C@@H]1C(=O)N[C@H]1CCC[C@@H]1C(N)=O)Cc1ccccc1)NC(=O)[C@H]1CCC[C@@H]1NC(=O)[C@H]1CCC[C@@H]1N")
239
>>> readout_value("NCCCC[C@@H](CC(=O)N[C@H]1CCC[C@@H]1C(=O)N[C@H]1CCC[C@@H]1C(N)=O)NC(=O)[C@H]1CCC[C@@H]1NC(=O)[C@H]1CCC[C@@H]1NC(=O)C[C@H](Cc1ccc(O)cc1)NC(=O)[C@H]1CCC[C@@H]1NC(=O)[C@H]1CCC[C@@H]1N")
42

Query: Requested read-out: Kd. Entry: NC(=O)[C@H]1CCC[C@@H]1NC(=O)[C@H]1CCC[C@@H]1NC(=O)C[C@H](Cc1ccccc1)NC(=O)[C@H]1CCC[C@@H]1NC(=O)[C@H]1CCC[C@@H]1NC(=O)C[C@H](CO)NC(=O)[C@H]1CCC[C@@H]1NC(=O)[C@H]1CCC[C@@H]1N
Reply: 153
